target: Histone deacetylase 1 (Homo sapiens, UniProt Q13547)
Sequence (Q13547 whole entry): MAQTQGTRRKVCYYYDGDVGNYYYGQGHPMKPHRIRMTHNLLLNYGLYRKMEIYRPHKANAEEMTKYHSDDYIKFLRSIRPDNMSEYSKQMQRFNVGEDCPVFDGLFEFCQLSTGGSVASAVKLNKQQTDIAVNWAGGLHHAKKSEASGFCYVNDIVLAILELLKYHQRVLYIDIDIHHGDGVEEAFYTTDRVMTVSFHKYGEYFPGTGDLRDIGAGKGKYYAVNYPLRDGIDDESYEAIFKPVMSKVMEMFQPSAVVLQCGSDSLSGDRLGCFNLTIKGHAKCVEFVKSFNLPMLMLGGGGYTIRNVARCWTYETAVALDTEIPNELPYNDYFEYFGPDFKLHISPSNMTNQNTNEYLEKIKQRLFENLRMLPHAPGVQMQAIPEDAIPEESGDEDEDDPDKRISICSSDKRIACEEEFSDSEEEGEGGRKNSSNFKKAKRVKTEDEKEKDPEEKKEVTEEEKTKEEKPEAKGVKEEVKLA
measured-attribute: pIC50
Answer as the number alone; pIC50 is minus log10 of concentration in mol/L.

compound O=C1/C(=C/c2ccc(O)cc2)Oc2ccccc21 , pIC50 observed: 3.89

* * *

molecular target: Histone deacetylase; test: Inhibition of HDAC in human HeLa cell extract after 15 mins by fluorescence assay; format: protein assay
measured-attribute: IC50
Please make sure the unit comes right after the number.

These solved cases illustrate the format of a correct answer.
compound	IC50
O=C1/C(=C/c2ccc(O)c(O)c2)Oc2ccccc21	8.2 µM
O=C1/C(=C/c2cccc(O)c2O)Oc2ccccc21	18.6 µM
O=C1/C(=C/c2ccc(O)cc2)Oc2ccccc21	12.6 µM
COc1ccc(/C=C2\Oc3ccccc3C2=O)cc1OC [3',4'-DIMETHOXY-AURONE]	71 µM
COCOc1cc(OCOC)c2c(c1)O/C(=C\c1ccc(OCOC)c(OCOC)c1)C2=O	40 µM

compound O=C1/C(=C/c2ccc(O)c(O)c2)Oc2cc(O)cc(O)c21 [AUREUSIDIN] , IC50 observed: 18.5 µM

* * *

assay: Cytotoxicity against human MeT-5A cells after 16 hrs by luciferase reporter gene assay; assay type: cell-based
measured-attribute: Activity

These solved cases illustrate the format of a correct answer.
molecular-string	Activity
O=C1/C(=C/c2cccc(O)c2O)Oc2ccccc21	Dose-dependent effect
O=C1/C(=C/c2ccc(O)cc2)Oc2ccccc21	Dose-dependent effect
COc1ccc(/C=C2\Oc3ccccc3C2=O)cc1OC	Dose-dependent effect
O=C1/C(=C/c2ccc(O)c(O)c2)Oc2cc(O)cc(O)c21	Dose-dependent effect
COc1ccc(/C=C2\Oc3ccc(Br)cc3C2=O)cc1OC	Dose-dependent effect

Shift focus to the following entry.
compound O=C1/C(=C/c2ccc(O)c(O)c2)Oc2ccccc21 , Activity observed: Dose-dependent effect

* * *

target: Protein deacetylase HDAC6 (Homo sapiens, UniProt Q9UBN7); test: Inhibition of HDAC6 (unknown origin) after 15 mins by fluorescence assay
Sequence (Q9UBN7 whole entry): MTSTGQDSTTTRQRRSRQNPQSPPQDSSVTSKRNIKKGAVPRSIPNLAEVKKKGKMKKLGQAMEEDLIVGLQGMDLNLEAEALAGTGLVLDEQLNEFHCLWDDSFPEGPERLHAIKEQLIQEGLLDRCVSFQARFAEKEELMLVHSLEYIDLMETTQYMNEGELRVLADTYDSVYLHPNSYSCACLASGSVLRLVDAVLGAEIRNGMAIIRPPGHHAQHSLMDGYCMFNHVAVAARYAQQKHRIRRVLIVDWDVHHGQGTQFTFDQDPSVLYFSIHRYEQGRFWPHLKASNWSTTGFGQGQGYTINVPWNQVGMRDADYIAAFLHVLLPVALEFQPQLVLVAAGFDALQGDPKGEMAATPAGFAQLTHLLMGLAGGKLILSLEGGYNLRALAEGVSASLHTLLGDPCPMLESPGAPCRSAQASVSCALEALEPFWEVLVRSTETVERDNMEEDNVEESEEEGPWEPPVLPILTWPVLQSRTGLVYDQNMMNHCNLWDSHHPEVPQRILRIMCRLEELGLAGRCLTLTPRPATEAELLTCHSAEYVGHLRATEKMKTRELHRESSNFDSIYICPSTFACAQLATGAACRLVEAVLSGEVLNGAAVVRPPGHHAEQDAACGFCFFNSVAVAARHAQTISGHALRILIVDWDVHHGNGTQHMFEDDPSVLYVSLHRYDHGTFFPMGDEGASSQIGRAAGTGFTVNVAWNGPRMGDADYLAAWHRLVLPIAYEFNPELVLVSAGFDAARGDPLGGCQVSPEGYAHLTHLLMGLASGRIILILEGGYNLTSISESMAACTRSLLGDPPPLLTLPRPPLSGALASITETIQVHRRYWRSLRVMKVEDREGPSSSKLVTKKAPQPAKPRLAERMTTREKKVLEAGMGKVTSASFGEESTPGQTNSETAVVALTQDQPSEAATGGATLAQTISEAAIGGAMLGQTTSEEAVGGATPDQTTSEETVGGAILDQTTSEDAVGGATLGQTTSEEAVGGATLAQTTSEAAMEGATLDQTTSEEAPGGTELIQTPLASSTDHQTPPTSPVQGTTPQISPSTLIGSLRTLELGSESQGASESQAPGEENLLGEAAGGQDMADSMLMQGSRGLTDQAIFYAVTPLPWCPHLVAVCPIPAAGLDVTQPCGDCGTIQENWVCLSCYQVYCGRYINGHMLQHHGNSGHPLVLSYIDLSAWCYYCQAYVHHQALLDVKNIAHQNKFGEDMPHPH
pIC50 overview
Answer as the number alone; pIC50 is minus log10 of concentration in mol/L.

These solved cases illustrate the format of a correct answer.
compound	study-target	measured-attribute	endpoint-result
O=C1/C(=C/c2cccc(O)c2O)Oc2ccccc21	Protein deacetylase HDAC6 (Homo sapiens, UniProt Q9UBN7)	pIC50	4.57
O=C1/C(=C/c2ccc(O)c(O)c2)Oc2ccccc21	Protein deacetylase HDAC6 (Homo sapiens, UniProt Q9UBN7)	pIC50	4.57

compound O=C1/C(=C/c2ccc(O)c(O)c2)Oc2cc(O)cc(O)c21 [AUREUSIDIN] , pIC50 observed: 4.31

* * *

experiment: Cytotoxicity against human MCF7 cells assessed as cell viability at 15 uM after 72 hrs by Celltitre-glo assay; type: cell-based; conditions: read-out: Activity
measured-attribute: viability at 72 h, 15 µM (%)
Give the value, in units of %, as a plain number.

compound COc1ccc(/C=C2\Oc3cc(OC)cc(OC)c3C2=O)cc1 , viability at 72 h, 15 µM observed: 10

compound O=C1/C(=C/c2ccc(O)cc2)Oc2ccccc21 , viability at 72 h, 15 µM observed: 79

compound Cc1ccc(/C=C/C(=O)c2ccccc2O)cc1 , viability at 72 h, 15 µM observed: 96

* * *

inhibition overview
target: Histone deacetylase (Homo sapiens) (UniProt Q13547+O15379+Q9UBN7+Q92769+Q9UQL6+Q8WUI4+Q9BY41+Q96DB2+P56524+Q9UKV0+Q969S8); assay: Inhibition of HDAC in human HeLa cell extract at 100 uM after 15 mins by fluorescence assay; format: protein assay
Give the value, in units of %, as a plain number.

These solved cases illustrate the format of a correct answer.
molecular-string	unit-abbreviation	inhibition
COc1cccc(/C=C2\Oc3ccccc3C2=O)c1OC	%	12
COc1ccc(/C=C2\Oc3cc(OC)cc(OC)c3C2=O)cc1	%	20
O=C(O)c1ccc(/C=C2\Oc3ccccc3C2=O)cc1	%	28
COc1cccc(/C=C2\Oc3ccccc3C2=O)c1	%	1

compound COc1cc(OC)c2c(c1)O/C(=C\c1ccccc1OC)C2=O , inhibition observed: 7
